So I've got a bunch of molecules here, and I need their β-Galactosidase Activity, Cultured With ATC values.
System: tet operator sequence
Experiment: β-galactosidase activity of a tetracycline-regulated promoter in transformed E. coli with revTetR, in the presence and absence of anhydrotetracycline (atc)
Format: cell-based, Escherichia coli
Settings: RevTetR isolate cultured in the presence of anhydrotetracycline (ATC)
One number for each entry.

Consider the worked cases shown below.
# Molecule, Meas value
data = [
    ("TetRrevAF5/1: revTetR(BD) L14F D95A V99G (protein, Modified tetracycline repressor, revTetR(BD) L14F D95A V99G) MSRLDKSKVINSAFELLNEVGIEGLTTRKLAQKLGVEQPTLYWHVKNKRALLDALAVEILARHHDYSLPAAGESWQSFLRNNAMSFRRALLRYRAGAKGHLGTRPDEKQYDTVETQLRFMTENGFSLRDGLYAISAVSHFTLGAVLEQQEHTAALTDRPAAPDENLPPLLREALQIMDSDDGEQAFLHGLESLIRGFEVQLTALLQIV", 1.072),
    ("TetRrevAtc4-6: revTetR(BD) D53Y L55L A56P R62L (protein, Modified tetracycline repressor, revTetR(BD) D53Y L55L A56P R62L) MSRLDKSKVINSALELLNEVGIEGLTTRKLAQKLGVEQPTLYWHVKNKRALLYALPVEILALHHDYSLPAAGESWQSFLRNNAMSFRRALLRYRDGAKVHLGTRPDEKQYDTVETQLRFMTENGFSLRDGLYAISAVSHFTLGAVLEQQEHTAALTDRPAAPDENLPPLLREALQIMDSDDGEQAFLHGLESLIRGFEVQLTALLQIV", 23.873),
    ("TetRrevAD3/10: revTetR(BD) N18Y G24G L51L D53Y A54V (protein, Modified tetracycline repressor, revTetR(BD) N18Y G24G L51L D53Y A54V) MSRLDKSKVINSALELLYEVGIEGLTTRKLAQKLGVEQPTLYWHVKNKRALLYVLAVEILARHHDYSLPAAGESWQSFLRNNAMSFRRALLRYRDGAKVHLGTRPDEKQYDTVETQLRFMTENGFSLRDGLYAISAVSHFTLGAVLEQQEHTAALTDRPAAPDENLPPLLREALQIMDSDDGEQAFLHGLESLIRGFEVQLTALLQIV", 3.5004),
]

For each of the items listed, what is its β-Galactosidase Activity, Cultured With ATC?
1. TetRrevAtc4-20: revTetR(BD) V57V E58K L60V A61T R62G (protein, Modified tetracycline repressor, revTetR(BD) V57V E58K L60V A61T R62G) MSRLDKSKVINSALELLNEVGIEGLTTRKLAQKLGVEQPTLYWHVKNKRALLDALAVKIVTGHHDYSLPAAGESWQSFLRNNAMSFRRALLRYRDGAKVHLGTRPDEKQYDTVETQLRFMTENGFSLRDGLYAISAVSHFTLGAVLEQQEHTAALTDRPAAPDENLPPLLREALQIMDSDDGEQAFLHGLESLIRGFEVQLTALLQIV
2. TetRrev6-54: revTetR(BD) Y93F D95N V99F (protein, Modified tetracycline repressor, revTetR(BD) Y93F D95N V99F) MSRLDKSKVINSALELLNEVGIEGLTTRKLAQKLGVEQPTLYWHVKNKRALLDALAVEILARHHDYSLPAAGESWQSFLRNNAMSFRRALLRFRNGAKFHLGTRPDEKQYDTVETQLRFMTENGFSLRDGLYAISAVSHFTLGAVLEQQEHTAALTDRPAAPDENLPPLLREALQIMDSDDGEQAFLHGLESLIRGFEVQLTALLQIV
3. TetRrevAD2/5: revTetR(BD) L17F L55L L60F R62V (protein, Modified tetracycline repressor, revTetR(BD) L17F L55L L60F R62V) MSRLDKSKVINSALELFNEVGIEGLTTRKLAQKLGVEQPTLYWHVKNKRALLDALAVEIFAVHHDYSLPAAGESWQSFLRNNAMSFRRALLRYRDGAKVHLGTRPDEKQYDTVETQLRFMTENGFSLRDGLYAISAVSHFTLGAVLEQQEHTAALTDRPAAPDENLPPLLREALQIMDSDDGEQAFLHGLESLIRGFEVQLTALLQIV
4. TetRrevAD2/1: revTetR(BD) G21G L51L D53Y L55L A56P A61E (protein, Modified tetracycline repressor, revTetR(BD) G21G L51L D53Y L55L A56P A61E) MSRLDKSKVINSALELLNGVGIEGLTTRKLAQKLGVEQPTLYWHVKNKRALLYALPVEILERHHDYSLPAAGESWQSFLRNNAMSFRRALLRYRDGAKVHLGTRPDEKQYDTVETQLRFMTENGFSLRDGLYAISAVSHFTLGAVLEQQEHTAALTDRPAAPDENLPPLLREALQIMDSDDGEQAFLHGLESLIRGFEVQLTALLQIV

OUT:
[8.048, 1.268, 1.4141, 1.17]

For each of the items listed, what is its β-Galactosidase Activity, Cultured With ATC?
1. TetRrevAF1/5: revTetR(BD) L14V G24G Y93D R94G D95G (protein, Modified tetracycline repressor, revTetR(BD) L14V G24G Y93D R94G D95G) MSRLDKSKVINSAVELLNEVGIEGLTTRKLAQKLGVEQPTLYWHVKNKRALLDALAVEILARHHDYSLPAAGESWQSFLRNNAMSFRRALLRDGGGAKVHLGTRPDEKQYDTVETQLRFMTENGFSLRDGLYAISAVSHFTLGAVLEQQEHTAALTDRPAAPDENLPPLLREALQIMDSDDGEQAFLHGLESLIRGFEVQLTALLQIV
2. TetRrevAtc4-16: revTetR(BD) D53N A54G V57F I59S L60F (protein, Modified tetracycline repressor, revTetR(BD) D53N A54G V57F I59S L60F) MSRLDKSKVINSALELLNEVGIEGLTTRKLAQKLGVEQPTLYWHVKNKRALLNGLAFESFARHHDYSLPAAGESWQSFLRNNAMSFRRALLRYRDGAKVHLGTRPDEKQYDTVETQLRFMTENGFSLRDGLYAISAVSHFTLGAVLEQQEHTAALTDRPAAPDENLPPLLREALQIMDSDDGEQAFLHGLESLIRGFEVQLTALLQIV

OUT:
1. 1.1988
2. 16.914
